# tgt: delta2 opioid receptor (Mus musculus, UniProt P32300)
# Construct: host or cells: unnamed cells 'bearing the delta2 opioid receptor'
# Sequence (P32300 whole entry): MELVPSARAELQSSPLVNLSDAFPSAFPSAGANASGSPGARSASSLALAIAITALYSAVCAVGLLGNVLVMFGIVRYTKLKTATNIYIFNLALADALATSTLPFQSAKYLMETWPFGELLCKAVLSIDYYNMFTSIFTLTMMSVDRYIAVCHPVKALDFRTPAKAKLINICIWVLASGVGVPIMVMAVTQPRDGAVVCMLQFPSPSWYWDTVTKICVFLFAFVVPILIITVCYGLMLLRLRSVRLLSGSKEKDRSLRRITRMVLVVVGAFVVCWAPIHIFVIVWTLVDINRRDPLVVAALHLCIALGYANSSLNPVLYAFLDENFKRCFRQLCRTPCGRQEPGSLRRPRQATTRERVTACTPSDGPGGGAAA
# experiment description: Agonist effect at the delta2 opioid receptor (DOP), cell impedance
# Format: cell-based
Ends that are not written are not given here.
measured quantity: pEC50
In textbook form, pEC50 equals minus log to base ten of the concentration in mol/L.

IN: Supply pEC50 value. Item: YPLDLF [YPLDLF]
OUT: 5.41

Data provenance is patent US9107852B2.
